- Tested on: CEM cells HIV-1 protection, formazan growth assay
- Assay Details: NCI AIDS Antiviral Assay
- Condition: measured here: growth of uninfected CEM cells
pIC50: −log10 of the molar value.
Property Measured: pIC50

COc1ccc(/C=C(/C(=O)c2ccc(Cl)cc2)N2C=CC=CC2=C(C#N)C#N)cc1OC :: 6.93
CC(C)N1CN(C(C(=O)N[C@@H]2C(=O)N3C2SC(C)(C)C3C(=O)O)c2ccc(O)cc2)CSC1=S (stereo partly specified) :: 4.10
N#CC(C#N)N=Cc1ccncc1 :: 3.77
C/C(=N/NC(=S)N1CCCCC1)c1cccc(/C(C)=N\NC(=S)N2CCCCC2)n1 :: 4.88
Cc1ccc(S(=O)(=O)N2CCCCC2)cc1 :: 4.14
CC(=O)NCCC1CN(C(=O)/C=C\I)c2ccccc21 (stereo unspecified) :: 5.03
Oc1[nH]c(=S)sc1/C=C1\C=Nc2ccccc21 :: 3.71
Brc1cscc1Cc1cscc1Br :: 4.13
O=c1cc(NNc2cccc(F)c2)[nH]c(=O)[nH]1 :: 5.96

----------
- System: CEM cells HIV-1 protection, formazan growth assay
- Assay Details: NCI AIDS Antiviral Assay
pEC50: −log10 of the molar value.
pEC50 overview
Property Measured: pEC50

CCCCCCc1cc2cc(C(=O)Nc3nc(C45CC6CC(CC(C6)C4)C5)cs3)c(=O)oc2cc1O :: < 4.00
CC(=O)Nc1ccc([As](=O)(O)O)cc1C(=O)O :: < 3.70
CCOC(=O)N1[C@@H]2CCC[C@@H]2C(=O)[C@@H]2CCC[C@@H]21 :: < 3.70
O=C(O)CNC(=O)OCCCCOC(=O)NCC(=O)O :: < 3.07
NC(=S)NNC(=O)/C(=C/c1ccc(/C=C(\NC(=O)c2ccccc2)C(=O)NNC(N)=S)cc1)NC(=O)c1ccccc1 :: < 5.06

----------
IC50 overview
- System: CEM cells HIV-1 protection, formazan growth assay
- Assay Details: NCI AIDS Antiviral Assay
- Condition: measured here: growth of uninfected CEM cells
Property Measured: IC50 (µM)

CC(=O)Oc1c2c(c(CC=C(C)C)c3c1C(=O)C1=C[C@@H]4CC5C(C)(C)OC(C/C=C(/C)C(=O)O)(C4=O)[C@@]15O3)OC(C)(CCC=C(C)C)C=C2 (stereo not given in full) :: 0.324
CCOC(=O)c1nc2ccc(C(F)(F)F)cc2nc1NCc1ccc(OC)c(OC)c1 :: 85.1
O=C1C2=Cc3ccccc3OC2(O)Oc2cc3ccccc3cc21 (stereo not given) :: 69.2
S=C(SSC(=S)N1CCCCC1)N1CCCCC1 :: 29.5
COc1cnn(-c2ccccc2)c(=O)c1SCc1ccc(Cl)c(Cl)c1 :: 27.5
CCCCCC(C)[P+](c1ccccc1)(c1ccccc1)c1ccccc1 (stereo not given) :: 0.955

----------
EC50 overview
- Test system: CEM cells HIV-1 protection, formazan growth assay
- Assay Details: NCI AIDS Antiviral Assay
Property Measured: EC50

O=C1CCC[C@]2(C1)Cc1ccccc1N2 :: > 468 µM
O=S(=O)(SSS(=O)(=O)c1ccccc1)c1ccccc1 :: > 75.9 µM
NC(=S)N/C=C\c1nc2ccccc2[nH]c1=O :: > 200 µM
Nc1nc(NNc2cccc(F)c2)cc(=O)[nH]1 :: > 200 µM
CCOC(=O)C1C(=O)CC2c3nc4ccccc4cc3CN2C1=O (stereo not drawn) :: > 10 µM
c1ccc2c(c1)CCN1CCc3ccccc3C1C2 (stereo not drawn) :: > 200 µM
NCc1ccc(O)c(O)c1O :: > 200 µM
COc1ccc(-c2c[se]c(=S)s2)cc1 :: > 18.2 µM
Clc1c2ncccc2cc2n[nH]nc12 :: > 200 µM
OC1COc2ccc(Cl)cc2CSC1 (stereo not drawn) :: > 200 µM
CCCCCCCCCC1OC(CCCCCCCCC)OC(CCCCCCCCC)O1 (stereo not drawn) :: > 200 µM
C=C1C(=O)[C@@]23CC1C(O)[C@@H](OC(C)=O)[C@@H]2C1(C)C(OC(C)=O)C[C@@H](OC(C)=O)C(C)(C)[C@@H]1C[C@H]3OC(C)=O (stereo partly drawn) :: > 200 µM
Cc1cc(-c2ccccc2)[s+]s1 :: > 200 µM
